Measured values drawn from PubChem BioAssay (NCI) for this set.

- Test system: CCRF-CEM leukemia
- experiment.description: NCI tumour cell line growth inhibition, 48 h; in the data active = GI50 below about 0.43 µM; inactive = the rest
# output must be one of Yes = active, No = inactive

Field: outcome | Entry: "Cc1n[nH]c(C)c1-c1c(C)n[nH]c1C"
No

GET /call?item= "CCn1nc(C#Cc2c(C)ccc3c(Nc4ccc(Cl)cc4)nccc23)c2c(N)ncnc21" returns the recorded outcome of this test.
No

Tell me the recorded outcome of this test for "COc1cc(C(=O)N[C@@H]2CCCN(C)C2)ccc1Nc1ncc2c(n1)N(C1CCCC1)CC(C)(C)C(=O)N2C" .
Yes

Hi, do you know how "COc1cc(F)c(F)c(F)c1C(=O)c1cnc(NC2CCN(S(C)(=O)=O)CC2)nc1N" came out in this test?
No

Recorded call for "CN(C)CCCn1c2c(c3ccc(N4CCNCC4)cc3c1=O)C(=O)c1ccccc1-2" ?
Yes

Recorded test outcome, item "CC1(C)CCC(c2ccc(Cl)cc2)=C(CN2CCN(c3ccc(C(=O)NS(=O)(=O)c4ccc(N[C@H](CCN5CCOCC5)CSc5ccccc5)c(S(=O)(=O)C(F)(F)F)c4)cc3)CC2)C1"
Yes

Hi, sorry to bother you, what did the test record for "N#CSc1c[nH]c2cccc(/C=C/C(=O)/C=C(O)/C=C/c3cccc4[nH]cc(SC#N)c34)c12" ?
Yes

Short answer needed: outcome of this test for "CC(C)CC(=O)O[C@H]1C(=O)O[C@@H]2C[C@H]3[C@H](C)C(=O)C(O[C@@H]4O[C@H](CO)[C@@H](O)[C@H](O)[C@H]4O)=C[C@]3(C)[C@H]3[C@@H](O)[C@H](O)[C@]4(C(=O)O)OC[C@]32[C@@H]14" ?
No

---

- Tested on: OVCAR-5 ovarian
- experiment.description: NCI tumour cell line growth inhibition, 48 h
Exercise: for every item that follows, state its recorded TGI.
Answer in µM, number only, no unit symbol.

Print OVCAR-5 ovarian TGI for O=P(c1ccccc1)(c1ccccc1)C1CC=C2CCCCCC2C1 (stereo not given) .
62.2

Specify TGI for "CCc1cccc(CC)c1NC1=CC(=O)C(=O)c2ccccc21" , system OVCAR-5 ovarian.
31

Please look at "NC1=Nc2cc(OCCCCN3Cc4ccccc4C3)c(OCC3CC3)cc2C12CCCC2" and tell me its recorded TGI on OVCAR-5 ovarian.
6.4

---

- Tested on: SF-268 CNS
- experiment.description: NCI tumour cell line growth inhibition, 48 h
Answer F if TGI is under 30 µM, and T if it is 30 µM or more.

hey, is TGI for this one >= 30 µM? CC(C)OC(=O)OCOP(=O)(OCOC(=O)OC(C)C)C1CCCN(O)C1=O (stereo not given)
T

Is TGI for CC(=O)C1=C(C)N2C(=NC3=C(CCc4ccccc43)C2c2ccc(Cl)cc2)S1 (stereo not given) at or above 30 µM?
T

Test whether the compound "O=c1[nH]nc(Nc2ccc(Cl)cc2)c2nnn(-c3ccc([N+](=O)[O-])cc3)c12" records TGI of 30 µM or higher.
T

Reported TGI reaches at least 30 µM for "O=c1[nH]c2ccccc2c(=O)c2cc3ccccc3cc12" ?
F

Please check the record COc1cc(CC2c3cc(OC)c(OC)cc3CCN2C)c(C(=O)O)cc1OC (stereo not given) and state if its TGI is at or above 30 µM.
T

Could you please find out whether "CC(=O)OCCn1c(Cc2ccc(Cl)cc2)nn(C(C)=O)c1=O" has TGI that meets 30 µM or exceeds it?
T

Evaluate "CCc1ccc2cc3c(ccc4ccccc43)c3c2c1CC3" : TGI at minimum 30 µM?
T

Reported TGI at or above 30 µM? "COc1ccc2nc3cc(Cl)ccc3c(NCCCN(C)CCCNc3ccc4ncn5c6ccccc6c(=O)c3c45)c2c1"
F

Item O=C(O)OC12CCCCCC1C(=O)C1CCCCC12 (stereo not given) with TGI of 30 µM or above?
T

Given "CC(=O)O[C@H]1CC[C@@]2(C)C(=CC[C@@H]3[C@@H]2CC[C@]2(C)C(=O)/C(=C\c4ccccc4)C[C@@H]32)C1" , state whether its TGI is at least 30 µM.
T

TGI >= 30 µM for "COc1cc2nc(NC3CCC3)nc(NC3CCN(C(C)C)CC3)c2cc1OC" ?
F

Does TGI meet or surpass 30 µM for "CNC(=S)N/N=C/CSC/C=N/NC(=S)NC" ?
T

Test whether the compound CC(=O)Nc1ccc(S(=O)(=O)N2C(=O)CCC2C(=O)Nc2ccccc2)cc1 (stereo not given) records TGI of 30 µM or higher.
F

Test whether the compound "CCc1cccc(CC)c1NC1=CC(=O)C(=O)c2ccccc21" records TGI of 30 µM or higher.
T

Hi, just wondering whether "CCN(CC)c1ccc(C=C2C(=O)NC(=S)NC2=O)cc1" shows TGI of 30 µM or higher.
F

Could you please find out whether "CC(=O)[O-].O=C([CH-]C(=O)c1ccccc1)c1ccccc1.O=C([CH-]C(=O)c1ccccc1)c1ccccc1.[Dy+3]" has TGI that meets 30 µM or exceeds it?
T

Textbook exercise: given the entry "COc1ccccc1Nc1nc(N)nc(N)c1N" , state whether its TGI is greater than or equal to 30 µM.
T

Threshold query (TGI >= 30 µM) on O=C1OCC2=C1C(c1ccc(Cl)cc1)c1cc3c(cc1O2)OCO3 (stereo not given)
T
